assay: Particle characteristics of LNPs containing luciferase mRNA and novel ionizable lipids; format: physicochemical; details: Table 6; luciferase mRNA LNP 1.6:54.6:32.8:10.9
QUANTITY: Final Product Z-avg (nm)
Give the value in nm but do not write nm after it.

| MOLECULE | Final Product Z-avg / nm |
| --- | --- |
| CCCCCCCCCCN(C(=O)CCCN(C)C)C(CCCCCCCCC)CCCCCCC(F)(F)C(=O)OCC(CCCCCC)CCCCCCCC (stereo not drawn) [Compound 17] | 68 |
| CCCCCCCCCCC(CCCCCCCC(=O)OCC(CCCCCC)CCCCCCCC)N(CCCCCCCCC(=O)OCC(CCCCCC)CCCCCCCC)C(=O)CCCCN(C)C (stereo not drawn) [Compound 72] | 79 |
| CCCCC/C=C\CCCC(CCC/C=C\CCCCC)C(CCC/C=C\CCCCC)OC(=O)CCCCN(C)C (stereo not drawn) [Compound 13-B43, reference compound] | 77 |
| CCCCCCCCCCC(CCCCCCCC(=O)OCCC(CCCCC)CCCCC)N(CCCCCCCCC(=O)OCCC(CCCCC)CCCCC)C(=O)CCCCN(C)C (stereo not drawn) [Compound 65] | 83 |

Measured Final Product Z-avg of CCCCCCCCCCN(C(=O)CCCN(C)C)C(CCCCCCCCC)CCCCCCC(F)(F)C(=O)OCCC(CCCCCC)CCCCCC (stereo not drawn) [Compound 16] : 76

Documented Final Product Z-avg of CCCCCCCCCCN(C(=O)CCCN(C)C)C(CCCCCCCCC)CCCCCCC(F)(F)C(=O)OC(CCCCC)CCCCC (stereo not drawn) [Compound 19] : 71

In plain terms, CCCCCCCCCCC(CCCCCCCC(=O)OC(CCCCCC)CCCCCC)N(CCCCCCCCCC)C(=O)CCCN(C)C (stereo not drawn) [Compound 5] has a documented Final Product Z-avg of 68

Consider CCCCCCCCCCN(C(=O)CCCN(C)C)C(CCCCCCCCC)CCCCCCC(F)(F)C(=O)OCCC(CCCCCCC)CCCCCCC (stereo not drawn) [Compound 18] . Its measured Final Product Z-avg is 73

Final Product Z-avg in this record for CCCCCCCCCCON(C(=O)CCCN(C)C)C(CCCCCCCCCC)CCCCCCC(=O)OCCC(CCCCC)CCCCC (stereo not drawn) [Compound 43] : 73

* * *

assay: Particle characteristics of LNPs containing luciferase mRNA and novel ionizable lipids; format: physicochemical; conditions: Table 7; luciferase mRNA LNP 1.6:54.6:32.8:10.9
Attribute: Final Product Z-avg
A number alone suffices; assume nm.

Guide cases for Final Product Z-avg, answers given:
| COMPOUND | QUANTITY | RECORDED_RESULT |
| --- | --- | --- |
| CCCCCCCCCC(CCCCCCC(F)C(=O)OCCC(CCCCC)CCCCC)N(CCCCCCCC(=O)OCCC(CCCCC)CCCCC)C(=O)CCCN(C)C (stereo not drawn) | Final Product Z-avg | 72 |
| CCCCC/C=C\CCCC(CCC/C=C\CCCCC)C(CCC/C=C\CCCCC)OC(=O)CCCCN(C)C (stereo not drawn) [Compound 13-B43, reference compound] | Final Product Z-avg | 74 |
| CCCCCCCCCCC(CCCCCCCC(=O)OCC(CCCCCC)CCCCCCCC)N(CCCCCCCC(=O)OCC(CCCCCC)CCCCCCCC)C(=O)CCCCN(C)C (stereo not drawn) | Final Product Z-avg | 89 |
| CCCCCCCCCCN(C(=O)CCCN(C)C)C(CCCCCCCCC)CCCCCCC(F)C(=O)OCC(CCCCCC)CCCCCCCC (stereo not drawn) | Final Product Z-avg | 63 |
| CCCCCCCCCCON(C(=O)CCCN(C)C)C(CCCCCCCCCC)CCCCCCC(F)(F)C(=O)OCCC(CCCCC)CCCCC (stereo not drawn) | Final Product Z-avg | 59 |

Please find the next compound below.
compound CCCCCCCCCCON(C(=O)CCCCN(C)C)C(CCCCCCCCCC)CCCCCC(=O)OCC(CCCCCC)CCCCCCCC (stereo not drawn) , Final Product Z-avg observed: 77

* * *

tested on: EGFP expression in the liver; assay: EGFP expression in liver after intravenous EGFP mRNA LNP (ELISA); details: Table 27; 0.5 mg/kg IV, 24 h post-IV administration, BALB/c mice (n = 4)
// EGFP lookup, one value per entry
Report as a plain number; the unit pg/g liver is understood.

Here is how some compounds turned out for EGFP.
| COMPOUND | TARGET_ENTITY | QUANTITY | UNIT_SPEC | RECORDED_RESULT |
| --- | --- | --- | --- | --- |
| CCCCCCCCCCN(C(=O)CCCN(C)C)C(CCCCCCCCC)CCCCC(F)C(=O)OC(CCCCCCCC)CCCCCCCC (centres unmarked) | EGFP expression in the liver | EGFP | pg/g liver | 3.94E+07 |
| CCCCC/C=C\CCCC(CCC/C=C\CCCCC)C(CCC/C=C\CCCCC)OC(=O)CCCCN(C)C (centres unmarked) [Compound 13-B43, reference compound] | EGFP expression in the liver | EGFP | pg/g liver | 6.46E+07 |
| CCCCCCCCCCN(C(=O)CCCN(C)C)C(CCCCCCCCC)CCCCC(F)C(=O)OC(CCCCCCC)CCCCCCC (centres unmarked) | EGFP expression in the liver | EGFP | pg/g liver | 2.35E+07 |
| CCCCCCCCCCN(C(=O)CCCN(C)C)C(CCCCCCCCC)CCCCC(F)C(=O)OC(CCCCCC)CCCCCC (centres unmarked) | EGFP expression in the liver | EGFP | pg/g liver | 3.81E+07 |

Let's switch to this compound now.
The compound CCCCCCCCCCN(C(=O)CCCN(C)C)C(CCCCCCCCC)CCCCC(F)C(=O)OCC(CCCCCC)CCCCCCCC (centres unmarked) showed EGFP equal to 1.90E+07

* * *

experiment: Particle characteristics of LNPs containing luciferase mRNA and novel ionizable lipids; format: physicochemical; conditions: Table 2; luciferase mRNA LNP 1.6:54.6:32.8:10.9

| COMPOUND | Final Product PDI |
| --- | --- |
| CCCCC/C=C\CCCC(CCC/C=C\CCCCC)C(CCC/C=C\CCCCC)OC(=O)CCCCN(C)C (stereo not drawn) [Compound 13-B43, reference compound] | (0.03) |
| CCCCCCCCCCC(CCCC(=O)OCC(CCCCCC)CCCCCCCC)N(CCCN(C)C)C(=O)CCCCCCC(=O)OCC(CCCC)CCCCCC (stereo not drawn) | (0.03) |
| CCCCCCCCCC(CC(=O)OCC(CCCCCC)CCCCCCCC)N(CCCN(C)C)C(=O)CCCCC(=O)OCC(CCCC)CCCCCC (stereo not drawn) | (0.03) |

* * *

assay: Particle characteristics of LNPs containing EGFP mRNA and novel ionizable lipids; assay type: physicochemical; conditions: Table 22; EGFP mRNA LNP 1.6:54.6:32.8:10.9
QUANTITY: Final Product Z-avg (nm)
// return numeric value only (unit: nm, not printed)

| COMPOUND | QUANTITY | RECORDED_RESULT |
| --- | --- | --- |
| CCCCCCCCCCC(CCCCCCC(=O)OC(CCCCCCC)CCCCCCC)N(CCCCCCC(F)(F)C(=O)OC(CCCCCCC)CCCCCCC)C(=O)CCCN(C)C (centres unmarked) [Compound 117] | Final Product Z-avg | 80 |
| CCCCCCCCCCN(C(=O)CCCN(C)C)C(CCCCCCCCC)CCCCCCC(F)C(=O)OC(CCCCCC)CCCCCC (centres unmarked) [Compound 113] | Final Product Z-avg | 72 |
| CCCCC/C=C\CCCC(CCC/C=C\CCCCC)C(CCC/C=C\CCCCC)OC(=O)CCCCN(C)C (centres unmarked) [Compound 13-B43, reference compound] | Final Product Z-avg | 73 |
| CCCCCCCCCCN(C(=O)CCCN(C)C)C(CCCCCCCCC)CCCCCCC(F)C(=O)OC(CCCCCCC)CCCCCCC (centres unmarked) [Compound 114] | Final Product Z-avg | 73 |
| CCCCCCCCCCN(C(=O)CCCN(C)C)C(CCCCCCCCC)CCCCCCC(F)(F)C(=O)OC(CCCCCCCC)CCCCCCCC (centres unmarked) [Compound 104] | Final Product Z-avg | 74 |
| CCCCCCCCCCC(CCCCCCC(=O)OC(CCCCCC)CCCCCC)N(CCCCCCC(F)(F)C(=O)OC(CCCCCC)CCCCCC)C(=O)CCCN(C)C (centres unmarked) [Compound 116] | Final Product Z-avg | 75 |
| CCCCCCCCCCC(CCCCCCC(=O)OC(CCCCCCCC)CCCCCCCC)N(CCCCCCC(F)(F)C(=O)OC(CCCCCCCC)CCCCCCCC)C(=O)CCCN(C)C (centres unmarked) [Compound 118] | Final Product Z-avg | 83 |

# input for lookup
Final Product Z-avg measured on CCCCCCCCCCON(C(=O)CCCN(C)C)C(CCCCCCCCCC)CCCCCCC(F)(F)C(=O)OC(CCCCCCC)CCCCCCC (centres unmarked) [Compound 106] = 73

The measurements presented in this section are drawn from patent US20250332112A1.
